Test system: HN5 tumor cells
protocolDescription: Method C: Cell Growth Inhibition Assay (CellTiter-Glo), HN5
Format: cell-based
experimentalParameters: Homo sapiens, 72 h, 3 days, 4-parameter fit
pIC50: −log10 of the molar value. Counter-ions that a name gives are not always drawn.
Each entry below carries its reported pIC50.

Solved cases (3 shown):
CN(C)CCOc1ccc(Nc2nccc(-c3sc(N4CCN(C)CC4)nc3-c3cccc(NC(=O)c4c(F)cccc4F)c3)n2)cc1Cl: 6.00 to 7.00
O=C(Nc1cccc(-c2nc(NC3CC3)sc2-c2ccnc(Nc3ccc(OCCN4CCCC4)c(F)c3)n2)c1)c1c(F)cccc1F: 6.00 to 7.00
Cc1nc(-c2cccc(NC(=O)c3c(F)cccc3F)c2)c(-c2ccnc(Nc3cccc(OCCN(C)C)c3)n2)s1: 6.00 to 7.00

-- ask Please list pIC50 recorded for the molecule "NS(=O)(=O)CCc1cccc(Nc2nccc(-c3scnc3-c3cccc(NC(=O)c4c(F)cccc4F)c3)n2)c1"
-- reply > 7.00

-- ask Specify reported pIC50 for the molecule shown: "Cc1nc(-c2cccc(NC(=O)c3c(F)cccc3F)c2)c(-c2ccnc(Nc3ccc(OC4CCNCC4)c(F)c3)n2)s1"
-- reply > 7.00

-- ask Give the reported value of pIC50 for this record: "CN(C)CCOc1cccc(Nc2nccc(-c3sc(NCCCN4CCOCC4)nc3-c3cccc(NC(=O)c4c(F)cccc4F)c3)n2)c1"
-- reply > 7.00

-- ask Retrieve pIC50 measured for "CCN(CC)CCOc1cccc(Nc2nccc(-c3sc(N)nc3-c3cccc(NC(=O)c4c(F)cccc4F)c3)n2)c1" and print it.
-- reply > 7.00

-- ask Please supply the value of reported pIC50 for the item CN1CCc2ccc(Nc3nccc(-c4sc(N)nc4-c4cccc(NC(=O)c5c(F)cccc5F)c4)n3)cc2C1 [Example 10, trifluoroacetate]
-- reply > 7.00

-- ask Name the recorded pIC50 of the molecule listed here: "CN(C)CCOc1cccc(Nc2nccc(-c3scnc3-c3cccc(NC(=O)c4c(F)cccc4F)c3)n2)c1"
-- reply > 7.00

-- ask Specify reported pIC50 for the molecule shown: "CN(C)CCOc1cccc(Nc2nccc(-c3sc(N)nc3-c3cccc(C(=O)Nc4c(F)cccc4F)c3)n2)c1"
-- reply 6.00 to 7.00

---

Tested on: A375P F11s tumor cells
protocolDescription: Method C: Cell Growth Inhibition Assay (CellTiter-Glo), A375P F11s
Assay type: cell-based
experimentalParameters: Homo sapiens, 72 h, 3 days, 4-parameter fit
pIC50: −log10 of the molar value.
readoutKind: pIC50

Solved cases below.
COc1ccc(Nc2nccc(-c3scnc3-c3cccc(NC(=O)c4c(F)cccc4F)c3)n2)cc1N1CCN(C)CC1: 6.00 to 7.00
CN(C)CCOc1ccc(Nc2nccc(-c3sc(N)nc3-c3ccc(F)c(NC(=O)c4c(F)cccc4F)c3)n2)cc1Cl: 6.00 to 7.00
Cc1nc(-c2cccc(NC(=O)c3cccc(C(F)(F)F)c3)c2)c(-c2ccnc(Nc3ccc4c(c3)CN(C)CC4)n2)s1: < 6.00
O=C(Nc1cccc(-c2nc(NC3CC3)sc2-c2ccnc(Nc3ccc(OCCN4CCCC4)c(F)c3)n2)c1)c1c(F)cccc1F: 6.00 to 7.00
CCc1nc(-c2cccc(NC(=O)c3c(F)cccc3F)c2)c(-c2ccnc(Nc3ccc(OCCN(C)C)c(Cl)c3)n2)s1: 6.00 to 7.00
CC(=O)N1CCC(Oc2ccc(Nc3nccc(-c4sc(C)nc4-c4cccc(NC(=O)c5c(F)cccc5F)c4)n3)cc2F)CC1: < 6.00

-- ask Under A375P F11s tumor cells, report pIC50 for "CN(C)CCOc1ccc(Nc2nccc(-c3sc(N)nc3-c3cccc(NC(=O)c4c(F)cccc4F)c3)n2)cc1Cl"
-- reply 6.00 to 7.00

---

The entries below are paired with their reported IC50.
System: Colo205 tumor cells
protocolDescription: Method B: CellTiter-Glo Growth Inhibition Assay, Colo205
Type: cell-based
experimentalParameters: Homo sapiens, COLO 205, 72 h, 3 days

Past entries and their recorded results:
Nc1nc(-c2cccc(C(=O)Nc3c(F)cccc3F)c2)c(-c2ccnc(Nc3cccc(CN4CCCC4)c3)n2)s1 [Example 77]: < 100 nM
CN(C)C1Cc2ccc(Nc3nccc(-c4scnc4-c4cccc(NC(=O)Cc5cccs5)c4)n3)cc2C1 (stereo not shown) [Example 83]: 100 to 1000 nM
Cc1nc(-c2cccc(NC(=O)c3c(F)cccc3F)c2)c(-c2ccnc(Nc3ccc(OCCN(C)C)c(Cl)c3)n2)s1 [Example 103]: > 1000 nM

Consider now this further molecule.
-- ask Read off the recorded IC50 for Cc1nc(-c2cccc(NC(=O)c3c(F)cccc3F)c2)c(-c2ccnc(Nc3cccc(F)c3)n2)s1 [Example 101]
-- reply > 1000 nM

---

# IC50 annotations
Test system: Colo205 tumor cells
protocolDescription: Method B: CellTiter-Glo Growth Inhibition Assay, Colo205
Type: cell-based
experimentalParameters: Homo sapiens, COLO 205, 72 h, 3 days
Counter-ions that a name gives are not always drawn.

Study these solved cases before continuing.
CN(C)CCOc1ccc(Nc2nccc(-c3scnc3-c3cccc(NC(=O)c4c(F)cccc4F)c3)n2)cc1Cl: 100 to 1000 nM
O=C(Cc1cccs1)Nc1cccc(-c2ncsc2-c2ccnc(Nc3ccc4c(c3)NC(=O)CO4)n2)c1 [Example 86, hydrochloride]: 100 to 1000 nM
Cc1cc(-c2sc(N)nc2-c2cccc(NC(=O)c3c(F)cccc3F)c2)nc(Nc2cccc(OCCN(C)C)c2)n1: > 1000 nM

-- ask Name the recorded IC50 of the compound listed here: "CCN(CC)CCOc1cccc(Nc2nccc(-c3scnc3-c3cccc(NC(=O)Cc4cccs4)c3)n2)c1"
-- reply 100 to 1000 nM

-- ask Please look at this compound and report its IC50: "Nc1nc(-c2cccc(NC(=O)c3c(F)cccc3F)c2)c(-c2ccnc(Nc3cccc(CCS(N)(=O)=O)c3)n2)s1"
-- reply 100 to 1000 nM

-- ask Provide only the value of recorded IC50 for "Nc1nc(-c2cccc(NC(=O)c3c(F)cccc3F)c2)c(-c2ccnc(Nc3ccc4c(c3)NC(=O)CO4)n2)s1"
-- reply > 1000 nM

-- ask Please look at this compound and report its IC50: "O=C(Nc1cccc(-c2nc(NCCCN3CCOCC3)sc2-c2ccnc(Nc3cccc(F)c3)n2)c1)c1c(F)cccc1F"
-- reply > 1000 nM

-- ask Entry O=C1COc2ccc(Nc3nccc(-c4scnc4-c4cccc(NC(=O)c5cc(F)ccc5F)c4)n3)cc2N1 [Example 99, hydrochloride] needs its IC50 filled in; supply it.
-- reply > 1000 nM

-- ask Return IC50 for the following compound: Nc1nc(-c2cccc(NC(=O)c3c(F)cccc3F)c2)c(-c2ccnc(Nc3ccc4c(c3)OCC(=O)N4)n2)s1 [Example 9, hydrochloride]
-- reply > 1000 nM

-- ask Name the recorded IC50 of the compound listed here: "CN(C)Cc1cccc(Nc2nccc(-c3scnc3-c3cccc(NC(=O)Cc4cccs4)c3)n2)c1"
-- reply 100 to 1000 nM

-- ask Look up and state reported IC50 for O=C(Cc1cccs1)Nc1cccc(-c2ncsc2-c2ccnc(Nc3ccc4c(c3)OCC(=O)N4)n2)c1 [Example 85, hydrochloride]
-- reply > 1000 nM

-- ask Complete the entry with IC50 for "COc1ccc(Nc2nccc(-c3scnc3-c3cccc(NC(=O)Cc4cccs4)c3)n2)cc1OCCN(C)C"
-- reply 100 to 1000 nM

-- ask Read off the recorded IC50 for "Nc1nc(-c2cccc(NC(=O)c3c(F)cccc3F)c2)c(-c2ccnc(Nc3cccc(F)c3)n2)s1"
-- reply > 1000 nM

-- ask Given "CCN(CC)CCOc1cccc(Nc2nccc(-c3scnc3-c3cccc(NC(=O)c4c(F)cccc4F)c3)n2)c1" , respond with its IC50.
-- reply 100 to 1000 nM

---

IC50 values by entry
System: SK-MEL-28 tumor cells
protocolDescription: Method C: Cell Growth Inhibition Assay (CellTiter-Glo), SK-MEL-28
Type: cell-based
experimentalParameters: Homo sapiens, SK-MEL-28, 72 h, 3 days, 4-parameter fit
Protocol: Human breast tumor cells (BT474) were cultured in RPMI (Mediatech 50-011-PB), containing 10% FBS (JRH Biosciences 12176) and 1% penicillin-streptomycin (Invitrogen 15140). […] Cells were harvested using trypsin/EDTA (Invitrogen 25200), counted using an haemocytometer, and plated. […] Total ATP was measured (as a surrogate estimate of cell number) using CellTiter-Glo® reagent (Promega G7571). […] Percent inhibition of cell growth was calculated relative to DMSO vehicle-treated control wells. […]

Worked cases, answers included:
COCCNc1nc(-c2cccc(NC(=O)c3c(F)cccc3F)c2)c(-c2ccnc(Nc3ccc(OCCN4CCCC4)c(Cl)c3)n2)s1: 0.1 to 1 µM
CCc1nc(-c2cccc(NC(=O)c3c(F)cccc3F)c2)c(-c2ccnc(Nc3ccc(OCCN(C)C)c(Cl)c3)n2)s1: 0.1 to 1 µM
Nc1nc(-c2cccc(NC(=O)c3c(F)cccc3F)c2)c(-c2ccnc(Nc3cccc(CN4CCCC4)c3)n2)s1: > 1 µM
CCc1nc(-c2cccc(NC(=O)c3c(F)cccc3F)c2)c(-c2ccnc(Nc3ccc(N4CCC(N5CCCCC5)CC4)c(F)c3)n2)s1: > 1 µM
Cc1nc(-c2cccc(NC(=O)c3cc(F)ccc3F)c2)c(-c2ccnc(Nc3ccc(OCCN(C)C)c(Cl)c3)n2)o1: > 1 µM

-- ask Specify IC50 for "Cc1nc(-c2cccc(NC(=O)c3cccc(C(F)(F)F)c3)c2)c(-c2ccnc(Nc3ccc4c(c3)CN(C)CC4)n2)s1" , system SK-MEL-28 tumor cells.
-- reply > 1 µM

-- ask Retrieve IC50 on SK-MEL-28 tumor cells; query "CN(C)CCOc1cccc(Nc2nccc(-c3scnc3-c3cccc(NC(=O)c4cc(F)ccc4F)c3)n2)c1"
-- reply > 1 µM

-- ask State IC50 on SK-MEL-28 tumor cells. Entry: "CN(C)CCOc1ccc(Nc2nccc(-c3sc(-c4ccc(O)cc4)nc3-c3cccc(NC(=O)c4cc(F)ccc4F)c3)n2)cc1Cl"
-- reply 0.1 to 1 µM
